Taken from patent US10517889B2.

Measured % Inhibition by item
# Tested on: human SMAD7 mRNA
# Assay: Antisense inhibition of human SMAD7 mRNA expression in Hep3B cells by 3-10-3 cEt gapmers, 10,000 nM, electroporation (Example 2)
# Type: cell-based
# Condition Context: Hep3B cells, electroporation with 10,000 nM antisense oligonucleotide, approximately 24 hours, SMAD7 mRNA by RT-PCR (RTS5062), relative to untreated control cells
Strand notation (5' to 3'): a small letter for the sugar, then the base; units joined by * are phosphorothioate-linked, units joined directly phosphodiester-linked; [ ] holds rarer units or linkages, { } end groups; capitals alone tell only the bases. k = constrained ethyl (cEt); [5mC] = 5-methylcytosine; d = 2'-deoxy (DNA)
Reply with just the number (in %).

Recorded results for 5 substances are shown here.
830144 (antisense kG*kG*kG*dT*dG*dT*dG*d[5mC]*dA*d[5mC]*d[5mC]*dA*dG*kG*kT*kG) [compound 830144]; 66
800061 (antisense k[5mC]*k[5mC]*k[5mC]*dA*dA*dA*dT*dG*d[5mC]*d[5mC]*dT*dG*d[5mC]*k[5mC]*k[5mC]*k[5mC]) [compound 800061]; 44
798815 (k[5mC]*kG*k[5mC]*dA*d[5mC]*d[5mC]*dA*dG*dT*dG*dT*dG*dA*k[5mC]*k[5mC]*kG; antisense) [compound 798815]; 45
798922 (kA*kA*kG*dT*dG*dT*dG*dG*d[5mC]*d[5mC]*dT*dG*d[5mC]*kT*k[5mC]*kA; antisense) [compound 798922]; 59
800006 (k[5mC]*kA*kA*dG*dG*dA*dA*dT*dT*dT*dT*d[5mC]*d[5mC]*k[5mC]*k[5mC]*kT; antisense) [compound 800006]; 41

Param readout = % Inhibition; param system = human SMAD7 mRNA; param query = 830093 (k[5mC]*kT*k[5mC]*dA*dT*dT*dA*dG*dT*d[5mC]*d[5mC]*d[5mC]*dA*kT*kG*kA; antisense) [compound 830093] ; response: value 5
